- Protocol Description: folding stability dG unfold from trypsin proteolysis; higher = more stable
Reported Property: folding stability dG unfold
Please answer in the form of a number followed by its unit of measurement.

>>> df
                             sequence_input   recorded_value
0  SKVKPGEKVEYVEITITVDVKSVEELEKKLRELLGVKEVKVTVTEENGKLTLTIVVKSKEEADKLKELLSSA [r9_764_TrROS_Hall]    1.22 kcal/mol
1  SAGGSAGIAKKNNLTLKVTVEKKGDKLLVTVEITYPDGTKKTITIELNIKLVPEVPPVHPDEPGFGSAGGSA [r15_843_TrMRF]    2.58 kcal/mol
2  SAGGMTIVKPSDGTPQFIEDEEAEKLVKELEEKGLLKKEKPGDITIPLPTVDPVTGKPRTTTITILPESSAG [r5_243_JUSTAS]  -0.962 kcal/mol

// moving on: another record for folding stability dG unfold
Query :: State, in one line, measured folding stability dG unfold of SAGGSAMPDDPLVLRANIPFVVVGPDGRPRLFRREILVPFASEEEAERFRRELEALGAEVEPVARASAGGSA [r15_117_TrMRF]
Result :: 1.62 kcal/mol

###

- Protocol Description: folding stability dG unfold from trypsin proteolysis; higher = more stable
Note to self: values exactly at 1 kcal/mol are criterion met. So folding stability dG unfold at or above 1 kcal/mol is criterion met, below is criterion not met.

Before answering, review these 8 worked examples.
In [3]: df
Out[3]:
                             sequence_input         class_name
0  SAGGSAGGSAGGTKTYTITNEDGSKITIEEVDGKYVITYPNGEKKEIEGMTLEELLKALSAGGSAGGSAGGS [r10_569_TrROS_Hall]      criterion met
1  SAGGSAMLRVFEKEHPGPFSITVLAGPGLSEEEIEELAEKLAEKKIEIEKKKIELEKKGKKPIFKKSAGGSA [r15_704_JUSTAS]  criterion not met
2  SAGGSAGGSANMPPEELADWIADKFQQRHGHPVKEIEVEHDPENNNYTITVEFDDKERTITLSAGGSAGGSA [r18_145_TrROS]  criterion not met
3  SAGGSAGGSAPDIKIEKIGENTYKITLNFEFTFEDGSKVKVKITFTFTVNFPEDDPLLKELFSAGGSAGGSA [r18_215_TrMRF]      criterion met
4  SAGGSAGGSAGMKVTVTITYPGGKVTTLDGDPEEVKAALPSSLTDVKITVTDPATGKVAASAGGSAGGSAGG [r11_353_JUSTAS]  criterion not met
5  SAGGGFEEIIEKAIAKAKELFPDTGAVVPITETVYDPVKKKPIVIEVLVEFDKDGKIKKVEILKISELSAGG [r13_770_TrMRF]      criterion met
6  SAGMIDVVVRVRLDVRPETVAEELRRRFPAIRRIEPVRVERRVEREPGRRYLLVHLRIELGDVPPELLRSAG [r5_326_TrMRF]      criterion met
7  SAGTVRLEVTVVIKLTKEQIENLPKDVKLEDGAEIEEKDDYLVIKRTIELPPPVVTDKDGKKLPLEELSAGG [r19_148_TrROS_Hall]  criterion not met

Query :: Exam item: decide whether the reported folding stability dG unfold for SAGGDVVRVRVRLRRFEIVGDRPVYRPVDIDILAEADGDPEAARRRAEREARRLAEEYGAEIEDIELFPSAG [r5_497_TrMRF] is at least 1 kcal/mol.
Result :: criterion met

Query :: Does the reported folding stability dG unfold for SAGGSIPLSDIKDIEIHPWRHPNNNYPMYRIRIDNGRDMVIFPGAIFEFDPDDGKIEEVKPMPFGDSAGGSA [r2_374_TrROS] fall at or above the 1 kcal/mol mark?
Result :: criterion not met

Query :: # check: folding stability dG unfold of SAGGSATPEEIAKKFFENHPELEPVEVKLEKFKIPGLKIWVVKVEITLKFKDNSKKKIPVVAVFPVSAGGSA [r15_266_TrMRF] is greater than or equal to 1 kcal/mol
Result :: criterion met

Query :: For this sequence, is measured folding stability dG unfold 1 kcal/mol or higher? SAGTIHFMVPRDEMSDEEAEDIVNTIAKHFPGFKIDRIYWHKQPDPDGDPRRMYHVEIKIKIPLPPGMKSAG [r5_835_TrROS]
Result :: criterion met

Query :: Can SAGKPKKKIKIKLYNVDTGEEIEIEVTVEELKKLLEKLGFEVVKIEYDEETGEVTIYVKVDGYYLEIEESAG [r5_521_TrROS_Hall] be said to have folding stability dG unfold at or above 1 kcal/mol?
Result :: criterion met

Query :: Please tell me: is the sequence SAGTVTIGIWIPADDIEQIKELIRSIAEEHGWEVKVDKIEPNPDGQYFVTVTVENPENGKEIKITIWIPSAG [r5_41_TrROS] at or over 1 kcal/mol in terms of folding stability dG unfold?
Result :: criterion met

Query :: Kindly determine if folding stability dG unfold recorded for SAGGSAGGSAMKYTVTVTLPNGTTLTLDVGTETEEEAVSETKKLIAEKYPDVKGAKIDLTKESAGGSAGGSA [r18_434_JUSTAS] is above or exactly 1 kcal/mol.
Result :: criterion met

Query :: Dear colleague, could you confirm whether SAGGSAGGSAKKTLYKVKITKKNKNGEKIEIVVPKSEDEIKEEAKKKFGIDKIEIEPVELKSAGGSAGGSAG [r3_220_TrROS_Hall] has folding stability dG unfold at or above 1 kcal/mol?
Result :: criterion not met

Query :: Hi, just wondering whether SAGGSAGGSMYRYTVTFPNTGTVLEKEFESLEEAKKYIPKDRPIKEIKVEPVEPPVSPEVLLVSAGGSAGGS [r12_851_JUSTAS] shows folding stability dG unfold of 1 kcal/mol or higher.
Result :: criterion not met

Query :: Dear colleague, could you confirm whether SAGGSMTLTFRKPDTDVTSEKVTKPPGGPELVDLRITPPDGSGEKRTLTPEELAKEFGLSLEEILESAGGSA [r2_262_JUSTAS] has folding stability dG unfold at or above 1 kcal/mol?
Result :: criterion not met

Query :: Textbook exercise: given the entry SAGGPLTLEFTLPNGDEVGDVTVEPLPDDSYIVTVVAEDKDRPGVYYVSLVRIPPTDRTLEVVSGPVYSAGG [r13_370_TrMRF] , state whether its folding stability dG unfold is greater than or equal to 1 kcal/mol.
Result :: criterion met

Query :: Confirm if folding stability dG unfold reported for the sequence SAGGSAGGSAGEIENPSLLSQIVPRKVKVTTEIRKLPNGSYETVTTVTYGSTTTTTTSSGATSAGGSAGGSA [r18_335_JUSTAS] is 1 kcal/mol or above.
Result :: criterion not met

Query :: Determine whether measured folding stability dG unfold meets or exceeds 1 kcal/mol for SAGGSAGGSAGGSFKVTYFPGEKLLAVTFPDGSKKIFKIDDKGNPTIIAVIDPDKGKVLPSAGGSAGGSAGG [r7_659_TrMRF]
Result :: criterion met

###

- Protocol Description: folding stability dG unfold (combined trypsin and chymotrypsin); higher = more stable
Would you please tag the item t when its folding stability dG unfold is 1 kcal/mol or above, and f when it is below?

>>> print(df.to_string())
                             sequence_input  class_name
0  SAGGMAVPVKVRDPVNGNWKTLDNIESIDEVVEVDPTDGSRSYFVKLKGSGKWYVVDDPEAVEAAKGSAGGS [r8_206_TrMRF]           t

Query :: Does folding stability dG unfold meet or surpass 1 kcal/mol for SAGGSAGGSAMPEEVKLRVVKVKVKEVEVETDENGEKRTRVKAEVVEEREITLPKEELEKLSAGGSAGGSAG [r3_121_TrROS_Hall] ?
Result :: t

Query :: Hi team, for SAGGSAGGSAGGMVKIKLKNGKWYEAKVTEIDEDGNVVVELPNGKKFTVPAKDLEIEVLPSAGGSAGGSAGG [r7_823_TrROS_Hall] , is the recorded folding stability dG unfold at or above 1 kcal/mol?
Result :: t

Query :: Exam item: decide whether the reported folding stability dG unfold for SAGDGDKMRGEHEREDPNGKKREVTHEMKVQPPPVPKPKIELPADDIDEIDPDNGTLRNPGNGKPFPIGSAG [r5_807_TrROS] is at least 1 kcal/mol.
Result :: f

###

- Protocol Description: folding stability dG unfold (combined trypsin and chymotrypsin); higher = more stable
Use rule met when the recorded folding stability dG unfold is no lower than 1 kcal/mol; use rule not met when it is lower.

>>> print(df.to_string())
                             sequence_input    class_name
0  SAGGSAGGSAGGAMPNDVKVTTTTFTGTETLTLTDASGTPTSSTKTVTTTRTSVFPDTTSAGGSAGGSAGGS [r10_1212_JUSTAS]  rule not met
1  SAGGSAGGSADAVVVEVTLPGGGKARAVFFPDGSVVIVVDFPDGRRAVIFLENNEIVVLPVDSAGGSAGGSA [r18_285_TrMRF]      rule met
2  KLKFKVKIKNPKTNETVEVEVELNEDGTVTVKVNGKLIAKFKIVAKPKPKVETKKVKDANGNEKTYKKVKFS [r1_496_TrROS_Hall]      rule met

Query :: Item SAGGSAMERRTFNLPADRVSPEVLLEKLKAVGLTPTEIKPVPDGVEVVVEYDPSKVEKLEKALKEGSAGGSA [r15_161_JUSTAS] with folding stability dG unfold of 1 kcal/mol or above?
Result :: rule not met

Query :: Entry SAGTAKELAELLPGATVEVDEETGTVTVTVELDGYTVRIEIRVDPETGEIVEIRITVTNPDGEEREFELSAG [r5_367_TrROS_Hall] : is its folding stability dG unfold no less than 1 kcal/mol?
Result :: rule met

Query :: Reported folding stability dG unfold reaches at least 1 kcal/mol for SKEVKITIEVKEVNGKLYVVVKVEVNGKEETLVFKSLEEAKNAIAKKLGLPKEKIKIKKVEVYKVSKKDLSA [r9_909_TrROS_Hall] ?
Result :: rule met

Recorded values, source the supplement of paper PMC12764529.
